- Test system: Venturia inaequalis
- procedure.details: Example A: greenhouse control of apple scab, phthalimides with DMI and/or fluopyram
- Assay type: in vivo
- test.parameters: Table 3; captan or folpet 1200, difenoconazole 75, tebuconazole 150, fluopyram 150 gAI/ha
endpoint.label: % control observed on leaves 26 DAYS after the application (%)
Numbers only, in %.

Consider the worked cases shown below.
# compound, test.system, reported.result
rows = [
    ("O=C1C2CC=CCC2C(=O)N1SC(Cl)(Cl)Cl (centres unmarked)", "Venturia inaequalis", 75.9),
    ("CC(C)(C)C(O)(CCc1ccc(Cl)cc1)Cn1cncn1 (centres unmarked)", "Venturia inaequalis", 77.4),
    ("CC1COC(Cn2cncn2)(c2ccc(Oc3ccc(Cl)cc3)cc2Cl)O1 (centres unmarked)", "Venturia inaequalis", 71.8),
]

Can you give me % control observed on leaves 26 DAYS after the application for all of these, one by one?
1. O=C(NCCc1ncc(C(F)(F)F)cc1Cl)c1ccccc1C(F)(F)F
2. O=C1c2ccccc2C(=O)N1SC(Cl)(Cl)Cl

Reply text:
1: 75.3; 2: 72.3
